Assay: Quantitative High-Throughput drug screen in 47 multiple myeloma cell lines against the NCATS MIPE library collection: JJN3_DSMZ cell viability assay (AID 1918966; further: nearly all actives have a fitted effect of over 50% in size)
Conditions: JJN3 myeloma cells viability, CellTiter-Glo ATP, 48 h; series mostly up to 45.8 µM
Inconclusive results are not listed. Calls of active or inactive are those of the source. The call rests on the fitted dose curve; in most records, active means well fitted cell-killing curve with a large enough effect; inconclusive means small, poorly fitted or top-dose-only effect, or effect the other way; inactive means no such curve, though single readings can be large or run the other way.
Respond only with the outcome that fits, drawn from active, inactive

// outcome(item) with item = CNCCCC12CCC(c3ccccc31)c1ccccc12
active

// outcome(item) with item = Cn1c(=O)c2c(ncn2C)n(C)c1=O
inactive

// outcome(item) with item = CN1C2CCC1CC(OC(=O)C(CO)c1ccccc1)C2 (centres undefined)
inactive

// outcome(item) with item = NCCc1cnc[nH]1
inactive

// outcome(item) with item = CCCNCC(O)COc1ccccc1C(=O)CCc1ccccc1 (centres undefined)
inactive

// outcome(item) with item = NS(=O)(=O)c1cc2c(cc1Cl)NCNS2(=O)=O
active

// outcome(item) with item = C[C@@H]1CC(=O)NN=C1c1ccc(NN=C(C#N)C#N)cc1
active

// outcome(item) with item = C[C@](N)(Cc1ccc(O)c(O)c1)C(=O)O
active

// outcome(item) with item = Nc1nc2c(ncn2COC(CO)CO)c(=O)[nH]1
active

// outcome(item) with item = CC[C@@]1(O)C(=O)OCc2c1cc1n(c2=O)Cc2cc3c(CN(C)C)c(O)ccc3nc2-1
active

// outcome(item) with item = CN1CCN(CCCN2c3ccccc3Sc3ccc(Cl)cc32)CC1
active

// outcome(item) with item = CN(CCOc1ccc(NS(C)(=O)=O)cc1)CCc1ccc(NS(C)(=O)=O)cc1
inactive

// outcome(item) with item = CCOC(=O)C(C)(C)Oc1ccc(Cl)cc1
inactive

// outcome(item) with item = O=C1N(c2ccccc2)c2ccccc2C1(Cc1ccncc1)Cc1ccncc1
inactive

// outcome(item) with item = CCCCc1oc2ccccc2c1C(=O)c1cc(I)c(OCCN(CC)CC)c(I)c1
active

// outcome(item) with item = Nc1c2c(nc3ccccc13)CCCC2
active

// outcome(item) with item = CN(C)C(=O)C(CCN1CCC(O)(c2ccc(Cl)cc2)CC1)(c1ccccc1)c1ccccc1
active

// outcome(item) with item = CCN1CCCC1CNC(=O)c1cc(S(=O)(=O)CC)c(N)cc1OC (centres undefined)
inactive

// outcome(item) with item = CC[N+](CC)(CC)CCOc1cccc(OCC[N+](CC)(CC)CC)c1OCC[N+](CC)(CC)CC
inactive

// outcome(item) with item = CC(C)NCC(O)c1ccc(O)c(O)c1 (centres undefined)
active

// outcome(item) with item = Cc1cn([C@H]2C[C@H](N=[N+]=[N-])[C@@H](CO)O2)c(=O)[nH]c1=O
active

// outcome(item) with item = NC(=O)NO
active

// outcome(item) with item = Cc1ccc(C(=O)Nc2ccc(S(=O)(=O)O)c3cc(S(=O)(=O)O)cc(S(=O)(=O)O)c23)cc1NC(=O)c1cccc(NC(=O)Nc2cccc(C(=O)Nc3cc(C(=O)Nc4ccc(S(=O)(=O)O)c5cc(S(=O)(=O)O)cc(S(=O)(=O)O)c45)ccc3C)c2)c1
inactive

// outcome(item) with item = CC#C[C@]1(O)CC[C@H]2[C@@H]3CCC4=CC(=O)CCC4=C3[C@@H](c3ccc(N(C)C)cc3)C[C@@]21C
active

* * *

Test system: CP286
Assay: qHTS profiling for inhibitors of Plasmodium falciparum proliferation (AID 504749); further: nearly all actives have a fitted effect of over 60% in size
Conditions: P. falciparum in erythrocytes, SYBR Green DNA, 72 h; series mostly up to 28.7 µM
Results filed as inconclusive are left out. Calls of active or inactive are those of the source. The call rests on the fitted dose curve; in most records, active means well fitted inhibition curve with a large enough effect; inconclusive means small, poorly fitted or top-dose-only effect; inactive means flat fitted curve, though single readings scatter.
Respond only with the outcome that fits, drawn from active, inactive

// outcome(item) with item = O=C1N(c2ccccc2)c2ccccc2C1(Cc1ccncc1)Cc1ccncc1
inactive

// outcome(item) with item = CC(C)C(=O)Nc1ccc([N+](=O)[O-])c(C(F)(F)F)c1
inactive

// outcome(item) with item = CC[C@@]1(O)C(=O)OCc2c1cc1n(c2=O)Cc2cc3c(CN(C)C)c(O)ccc3nc2-1
active

// outcome(item) with item = CN(C)C(=N)N=C(N)N
inactive

// outcome(item) with item = CN1CCN2c3ccccc3Cc3ccccc3C2C1 (centres undefined)
inactive

// outcome(item) with item = CCOC(=O)Nc1ccc(NCc2ccc(F)cc2)nc1N
active

// outcome(item) with item = CN(CCOc1ccc(NS(C)(=O)=O)cc1)CCc1ccc(NS(C)(=O)=O)cc1
inactive

// outcome(item) with item = CC(C)Cc1ccc(C(C)C(=O)O)cc1 (centres undefined)
inactive

// outcome(item) with item = Cc1cnc(C(=O)NCCc2ccc(S(=O)(=O)NC(=O)NC3CCCCC3)cc2)cn1
inactive

// outcome(item) with item = CC(CCc1ccc(O)cc1)NCCc1ccc(O)c(O)c1 (centres undefined)
inactive

// outcome(item) with item = CC(=O)OCC(CCn1cnc2cnc(N)nc21)COC(C)=O
inactive

// outcome(item) with item = COc1ccccc1OCCNCC(O)COc1cccc2[nH]c3ccccc3c12 (centres undefined)
active

// outcome(item) with item = NC(=O)NO
inactive

// outcome(item) with item = CS(=O)(=O)Nc1ccc([N+](=O)[O-])cc1Oc1ccccc1
inactive

// outcome(item) with item = O=c1c(O)c(-c2ccc(O)c(O)c2)oc2cc(O)cc(O)c12
active

// outcome(item) with item = CCC1(c2ccccc2)C(=O)NCNC1=O
inactive

// outcome(item) with item = Cc1ccc(-c2cc(C(F)(F)F)nn2-c2ccc(S(N)(=O)=O)cc2)cc1
active

// outcome(item) with item = OCCN1CCN(CCCN2c3ccccc3Sc3ccc(C(F)(F)F)cc32)CC1
active

// outcome(item) with item = CC[N+](CC)(CC)CCOc1cccc(OCC[N+](CC)(CC)CC)c1OCC[N+](CC)(CC)CC
inactive

// outcome(item) with item = NS(=O)(=O)c1cc2c(cc1Cl)NCNS2(=O)=O
inactive

// outcome(item) with item = CCOC(=O)c1ncn2c1CN(C)C(=O)c1cc(F)ccc1-2
inactive

// outcome(item) with item = Clc1ccccc1C(c1ccccc1)(c1ccccc1)n1ccnc1
active

// outcome(item) with item = Nc1nc2c(ncn2COC(CO)CO)c(=O)[nH]1
inactive

// outcome(item) with item = CN1CCC(=C2c3ccccc3C=Cc3ccccc32)CC1
inactive

// outcome(item) with item = COc1ccccc1OCC(O)CN1CCN(CC(=O)Nc2c(C)cccc2C)CC1 (centres undefined)
inactive

// outcome(item) with item = Cc1cc(C(C)(C)C)cc(C)c1CC1=NCCN1
inactive

// outcome(item) with item = Clc1ccc2nsnc2c1NC1=NCCN1
inactive

// outcome(item) with item = Cn1c(=O)c2[nH]cnc2n(C)c1=O
inactive

// outcome(item) with item = Cn1c(=O)c2c(ncn2C)n(C)c1=O
inactive

// outcome(item) with item = NCCS(=O)(=O)O
inactive

// outcome(item) with item = Cc1ccc(C(=O)Nc2ccc(S(=O)(=O)O)c3cc(S(=O)(=O)O)cc(S(=O)(=O)O)c23)cc1NC(=O)c1cccc(NC(=O)Nc2cccc(C(=O)Nc3cc(C(=O)Nc4ccc(S(=O)(=O)O)c5cc(S(=O)(=O)O)cc(S(=O)(=O)O)c45)ccc3C)c2)c1
inactive

// outcome(item) with item = COC(=O)Nc1nc2ccc(C(=O)c3cccs3)cc2[nH]1
inactive

// outcome(item) with item = Nc1nnc(-c2cccc(Cl)c2Cl)c(N)n1
inactive

// outcome(item) with item = O=C(Nc1ccc([N+](=O)[O-])cc1Cl)c1cc(Cl)ccc1O
active

// outcome(item) with item = CCOC(=O)C(C)(C)Oc1ccc(Cl)cc1
inactive

// outcome(item) with item = NCCCCCC(=O)O
inactive

// outcome(item) with item = C[C@](N)(Cc1ccc(O)c(O)c1)C(=O)O
inactive

// outcome(item) with item = Cn1cnc2c1c(=O)[nH]c(=O)n2C
inactive

// outcome(item) with item = CS(=O)(=O)CCNCc1ccc(-c2ccc3ncnc(Nc4ccc(OCc5cccc(F)c5)c(Cl)c4)c3c2)o1
inactive

* * *

Assay: qHTS for differential inhibitors of proliferation of Plasmodium falciparum line 3D7 (AID 1876)
Details: P. falciparum 3D7 proliferation inhibition; series mostly up to 28.7 µM
Inconclusive results are not listed. Activity calls are given as the source filed them. The call rests on the fitted dose curve; in most records, active means well fitted curve in the direction sought with a large enough effect; inconclusive means small, poorly fitted or top-dose-only effect, or another doubt; inactive means no such curve, though single readings can be large or run the other way.
Respond only with the outcome that fits, drawn from active, inactive

// outcome(item) with item = Clc1ccc(C(c2ccccc2Cl)C(Cl)Cl)cc1 (stereo not drawn)
inactive

// outcome(item) with item = CN(C)CCCN1c2ccccc2CCc2ccc(Cl)cc21
active

// outcome(item) with item = OCCN(CCO)c1nc(N2CCCCC2)c2nc(N(CCO)CCO)nc(N3CCCCC3)c2n1
active

// outcome(item) with item = CC(C)(Oc1ccc(C2CC2(Cl)Cl)cc1)C(=O)O (stereo not drawn)
inactive

// outcome(item) with item = Nc1ccn([C@H]2CC[C@@H](CO)O2)c(=O)n1
inactive

// outcome(item) with item = C[C@](N)(Cc1ccc(O)c(O)c1)C(=O)O
inactive

// outcome(item) with item = CN1CCC(=C2c3ccccc3C=Cc3ccccc32)CC1
active

// outcome(item) with item = CN(C)CCOC(c1ccccc1)c1ccccc1
inactive

// outcome(item) with item = NC12CC3CC(CC(C3)C1)C2
inactive

// outcome(item) with item = NCCCCCC(=O)O
inactive

// outcome(item) with item = CN1CCC(=C2c3ccccc3CC(=O)c3sccc32)CC1
active

// outcome(item) with item = COc1ccc2[nH]cc(CCNC(C)=O)c2c1
inactive

// outcome(item) with item = CCC1(C)CC(=O)NC1=O (stereo not drawn)
inactive

// outcome(item) with item = CCOC(=O)Nc1ccc(NCc2ccc(F)cc2)nc1N
active

// outcome(item) with item = NCCS(=O)(=O)O
inactive

// outcome(item) with item = COc1ccccc1OCC(O)CN1CCN(CC(=O)Nc2c(C)cccc2C)CC1 (stereo not drawn)
inactive

// outcome(item) with item = Clc1ccccc1C(c1ccccc1)(c1ccccc1)n1ccnc1
active

// outcome(item) with item = Nc1c2c(nc3ccccc13)CCCC2
active

// outcome(item) with item = CC[N+](CC)(CC)CCOc1cccc(OCC[N+](CC)(CC)CC)c1OCC[N+](CC)(CC)CC
inactive

// outcome(item) with item = Nc1nc2c(ncn2COC(CO)CO)c(=O)[nH]1
inactive

// outcome(item) with item = CC(C)NCC(O)COc1ccc(CCOCC2CC2)cc1 (stereo not drawn)
inactive

// outcome(item) with item = CC(C)Cc1ccc(C(C)C(=O)O)cc1 (stereo not drawn)
inactive

// outcome(item) with item = NC(=O)OCC(COC(N)=O)c1ccccc1
inactive

Where these numbers come from: PubChem BioAssay (NCATS)
